# credit: PubChem BioAssay (NCI)

test system: SNB-19 CNS; test: NCI tumour cell line growth inhibition, 48 h; in the data active = GI50 below about 0.43 µM; inactive = the rest
Labels: TRUE = active, FALSE = inactive

| MOLECULE | CLASS_LABEL |
| --- | --- |
| C#CCOc1ccc2ncnc(Nc3ccc(NC(=O)CCl)cc3)c2c1 | FALSE |
| COc1cccc2c1cc([N+](=O)[O-])c1c(C(=O)O)cc3c(c12)OCO3 | FALSE |
| Oc1ccc(Br)cc1/C=N/NC(=S)NC12CC3CC(CC(C3)C1)C2 | FALSE |
| CCOC(=O)c1cc2cc(NC(=O)c3cc4cc([N+](=O)[O-])ccc4n3C)ccc2n1C | FALSE |
| C[C@H]1CCC/C=C/[C@@H]2C[C@H](O)C[C@H]2[C@H](O)[C@@H](S(=O)CCN)CC(=O)O1 (stereo partly drawn) | TRUE |
| CCOC(=O)c1c(C)n(CC(C)C)c2c1cc1oc(=O)c(=O)n3cnc2c13 | FALSE |
| COc1ccc(NC(=O)c2sc3nc(C)c(C(O)c4ccc(OC)cc4)cc3c2N)cc1 (stereo not drawn) | FALSE |
| COc1ccc(C2C(c3ccccc3)C(=O)N2c2cc(OC)c(OC)c(OC)c2)cc1I (stereo not drawn) | FALSE |
| O=C(CC1(O)C(=O)Nc2ccc(Br)cc21)c1ccc(C(=O)NCC2CCC3(CC2)OOC2(CCCCC2)OO3)cc1 (stereo not drawn) | FALSE |
| CN1CCN(Cc2ccc(NC(=O)c3[nH]ncc3Nc3ncnc4sccc34)cc2)CC1 | TRUE |
| COc1cc(-c2nn(C(=O)NS(=O)(=O)c3ccc(C)cc3)cc2-c2ccncc2)ccc1Cl | FALSE |
| CCOC(=O)N1C/C(=C/c2ccc(OC)cc2)C(=O)/C(=C/c2ccc(OC)cc2)C1 | FALSE |
| CCCCCCCCCCCCOC1C(C(COC2OC(C(O)CN3CCCCC3)C3OC(C)(C)OC23)NC(=O)Nc2ccccc2)OC2OC(C)(C)OC21 (stereo not drawn) | FALSE |

====

system: HCT-15 colon; assay: NCI tumour cell line growth inhibition, 48 h
Recorded TGI values for a group of compounds are listed next.
ENDPOINT_LABEL: TGI

| COMPOUND | TARGET_OF_ASSAY | REPORTED_RESULT |
| --- | --- | --- |
| O=C1c2ccccc2C(=O)c2c(NCCNC(=O)C3CCCN3)ccc(NCCNC(=O)C3CCCN3)c21 (stereo unspecified) | HCT-15 colon | > 100 µM |
| CC(C)C[C@H](NC(=O)CCc1ccccc1)B(O)O | HCT-15 colon | 38.1 µM |
| Fc1ccc(F)c(C2SCc3nc4ccccc4n32)c1 (stereo unspecified) | HCT-15 colon | > 100 µM |
| O=C(O)c1ccc(-c2ccc(C(=O)O)cc2I)c(I)c1 | HCT-15 colon | > 100 µM |
| CCOC(=O)CC1=NC(=Nc2cc(Cl)ccc2Cl)SC1 | HCT-15 colon | > 100 µM |
| O=C(/C=C/c1c(O)ccc2ccccc12)c1cccc2ccccc12 | HCT-15 colon | > 100 µM |
| CN1CCN(Cc2ccc(NC(=O)c3[nH]ncc3Nc3ncnc4sccc34)cc2)CC1 | HCT-15 colon | > 100 µM |
| O=[N+]([O-])/C(Cl)=C(\Nc1ccccc1)C(Cl)=C(Cl)Cl | HCT-15 colon | 66.6 µM |
| Cc1ccc(C2SCc3nc4ccc(C(=O)c5ccccc5)cc4n32)cc1 (stereo unspecified) | HCT-15 colon | > 42.9 µM |
| C[C@H]1COC2(c3ccccc3)CCC(=O)N12 (stereo partly specified) | HCT-15 colon | > 100 µM |
| CO/C(=N\N=C\c1ccc(OC)cc1OC)c1ccncc1 | HCT-15 colon | > 10 µM |
| Oc1cc(O)cc(/C=C/c2ccc(O)c(O)c2)c1 | HCT-15 colon | > 100 µM |
| CCCC[P+](c1ccccc1)(c1ccccc1)c1ccccc1 | HCT-15 colon | > 100 µM |
| CCOc1ccc(N/C(=C(/C(Cl)=C(/Cl)NCCO)[N+](=O)[O-])n2nnc3ccccc32)cc1 | HCT-15 colon | 43.3 µM |
| Cc1ccc(C)c(/C(=N\N=C(N)N)C2CC2)c1 | HCT-15 colon | > 100 µM |
| BrC(Br)(Br)c1cnc2ccccc2n1 | HCT-15 colon | 6.2 µM |
| CN(C)c1nc(N(C)C)n2nc(-c3ccccc3[N+](=O)[O-])nc2n1 | HCT-15 colon | 31.3 µM |
| C#CCOc1ccc2ncnc(Nc3ccc(NC(=O)CCl)cc3)c2c1 | HCT-15 colon | 19.2 µM |
| CC(=O)OCC(OC(C)=O)C(OC(C)=O)C(OC(C)=O)C(=O)CNn1c(-c2ccccc2)nc2ccc(Br)cc2c1=O (stereo unspecified) | HCT-15 colon | > 100 µM |
| Cc1cc(=O)[nH]c(NN2C(Cl)C(=O)C2c2cccc([N+](=O)[O-])c2)n1 (stereo unspecified) | HCT-15 colon | 31.5 µM |
| CCCCCC(=O)OCC(=O)[C@H]1[C@H](C)C[C@H]2[C@@H]3C[C@H](F)C4=C/C(=N/OC(=O)c5cccc6c(=O)c7ccccc7[nH]c56)C=C[C@]4(C)[C@H]3[C@@H](O)C[C@@]21C | HCT-15 colon | > 100 µM |
